Parameter: % apoptotic cells at given concentration (nM). Scope: all listed entries.
System: Jurkat human T lymphocyte cell line
Assay: Apoptosis assay (Annexin V) of compounds incubated with human serum
Conditions: Table 3; human serum, 0 hr; 10000 nM
Provide the reading as a plain figure in %.

Completed entries (count: 3):
[
  {
    "Molecule": "CC(C)[C@]12O[C@H]1[C@@H]1O[C@]13[C@]1(O[C@H]1C[C@H]1C4=C(CC[C@@]13C)C(=O)OC4)[C@@H]2OC(=O)CCC(=O)O [PG490-88, triptolide-14-succinate, reference compound]",
    "Numeric result": 89.2
  },
  {
    "Molecule": "CC(C)[C@]12O[C@H]1[C@@H]1O[C@]13[C@]1(O[C@H]1C[C@H]1C4=C(CC[C@@]13C)C(=O)OC4)[C@@H]2O [PG490, Triptolide]",
    "Numeric result": 94.9
  },
  {
    "Molecule": "CC(C)[C@]12O[C@H]1[C@@H]1O[C@]13[C@]1(O[C@H]1C[C@H]1C4=C(CC[C@@]13C)C(=O)OC4)[C@@H]2OC(=O)CCC(N)C(=O)O (stereo partly shown) [PG661, 14-isoglutamyl ester, reference compound]",
    "Numeric result": 7.9
  }
]

Now for another entry.
Reported % apoptotic cells at given concentration (nM) of CCNC(=O)O[C@@H]1[C@@]2(C(C)C)O[C@H]2[C@@H]2O[C@]23[C@]12O[C@H]2C[C@H]1C2=C(CC[C@@]13C)C(=O)OC2 [PG666, Triptolide 14-Ethyl Carbamate] : 93.6

---

System: Jurkat human T lymphocyte cell line
Assay: Apoptosis assay (Annexin V) of compounds incubated with human serum
Settings: incubation time in human serum 1 hour
Measurement kind: Conversion, as relative ED50 compared to triptolide (%)
Give the number; % is assumed, so skip it.

// solved cases for Conversion, as relative ED50 compared to triptolide (%) follow
[
  {
    "Compound": "CC(C)[C@]12O[C@H]1[C@@H]1O[C@]13[C@]1(O[C@H]1C[C@H]1C4=C(CC[C@@]13C)C(=O)OC4)[C@@H]2OC(=O)OCCN(C)C.Cc1ccc(S(=O)(=O)O)cc1",
    "Result unit": "%",
    "Numeric result": 89
  },
  {
    "Compound": "CC(C)[C@]12O[C@H]1[C@@H]1O[C@]13[C@]1(O[C@H]1C[C@H]1C4=C(CC[C@@]13C)C(=O)OC4)[C@@H]2OC(=O)OCCN(C)C",
    "Result unit": "%",
    "Numeric result": 76
  },
  {
    "Compound": "CC(C)[C@]12O[C@H]1[C@@H]1O[C@]13[C@]1(O[C@H]1C[C@H]1C4=C(CC[C@@]13C)C(=O)OC4)[C@@H]2OC(=O)O[C@H](C)C(=O)OC(C)(C)C",
    "Result unit": "%",
    "Numeric result": 7
  },
  {
    "Compound": "CC(C)[C@]12O[C@H]1[C@@H]1O[C@]13[C@]1(O[C@H]1C[C@H]1C4=C(CC[C@@]13C)C(=O)OC4)[C@@H]2OC(=O)CCC(=O)O [PG490-88, triptolide-14-succinate, reference compound]",
    "Result unit": "%",
    "Numeric result": 2
  }
]

Looking up CCOC(=O)O[C@@H]1[C@@]2(C(C)C)O[C@H]2[C@@H]2O[C@]23[C@]12O[C@H]2C[C@H]1C2=C(CC[C@@]13C)C(=O)OC2 [PG674, Triptolide 14-Ethyl Carbonate] , I found its Conversion, as relative ED50 compared to triptolide (%) recorded as 98

---

% apoptotic cells at given concentration (nM) values by entry
Test system: Jurkat human T lymphocyte cell line
Test: Apoptosis assay (Annexin V) of compounds incubated with human serum
Conditions: Table 4; serum, 48 hr; 0.1 nM
Write the number in % without appending the unit.

[
  {
    "Compound": "CCNC(=O)O[C@@H]1[C@@]2(C(C)C)O[C@H]2[C@@H]2O[C@]23[C@]12O[C@H]2C[C@H]1C2=C(CC[C@@]13C)C(=O)OC2 [PG666, Triptolide 14-Ethyl Carbamate]",
    "Target or system": "Jurkat human T lymphocyte cell line",
    "Numeric result": 40.7
  }
]

GET /value?item= CC(C)[C@]12O[C@H]1[C@@H]1O[C@]13[C@]1(O[C@H]1C[C@H]1C4=C(CC[C@@]13C)C(=O)OC4)[C@@H]2O [PG490, Triptolide] &field=% apoptotic cells at given concentration (nM) returns 6.9

% apoptotic cells at given concentration (nM) recorded for this compound, CC(C)[C@]12O[C@H]1[C@@H]1O[C@]13[C@]1(O[C@H]1C[C@H]1C4=C(CC[C@@]13C)C(=O)OC4)[C@@H]2OC(=O)CCC(=O)O [PG490-88, triptolide-14-succinate, reference compound] , is 6.5

Lab note: CC(C)[C@]12O[C@H]1[C@@H]1O[C@]13[C@]1(O[C@H]1C[C@H]1C4=C(CC[C@@]13C)C(=O)OC4)[C@@H]2OC(=O)Nc1ccccc1 [PG671, Triptolide 14-Phenyl Carbamate] gave % apoptotic cells at given concentration (nM) of 43.3

get_value(item= CC(C)[C@]12O[C@H]1[C@@H]1O[C@]13[C@]1(O[C@H]1C[C@H]1C4=C(CC[C@@]13C)C(=O)OC4)[C@@H]2OC(=O)N1CCN(C)CC1 [PG672, N-methylpiperazinecarbonyl (carbamate)] , readout=% apoptotic cells at given concentration (nM)) returns 45.2

Entry CC(C)[C@]12O[C@H]1[C@@H]1O[C@]13[C@]1(O[C@H]1C[C@H]1C4=C(CC[C@@]13C)C(=O)OC4)[C@@H]2OC(=O)CCC(N)C(=O)O (stereo partly drawn) [PG661, 14-isoglutamyl ester, reference compound] — recorded % apoptotic cells at given concentration (nM) = 38.2

---

Test system: Jurkat human T lymphocyte cell line
Experiment: Apoptosis assay (Annexin V) of compounds incubated with human serum
Conditions: Homo sapiens, Jurkat, 1 h, read-out: ED50 (nM) in apoptosis assay after incubation with serum, incubation time in human serum 1 hour, 37° C.
# EC50 values compiled below
Write the value in nM as a bare number.

The following compounds have reported results that may help.
[
  {
    "Compound": "CC(C)[C@]12O[C@H]1[C@@H]1O[C@]13[C@]1(O[C@H]1C[C@H]1C4=C(CC[C@@]13C)C(=O)OC4)[C@@H]2OC(=O)OCCN(C)C [PG682]",
    "Measurement kind": "EC50",
    "Numeric result": 66
  },
  {
    "Compound": "CC(C)[C@]12O[C@H]1[C@@H]1O[C@]13[C@]1(O[C@H]1C[C@H]1C4=C(CC[C@@]13C)C(=O)OC4)[C@@H]2OC(=O)O[C@H](C)C(=O)OC(C)(C)C [PG681]",
    "Measurement kind": "EC50",
    "Numeric result": 684
  }
]

Continue with the next compound.
get_value(item= CCOC(=O)O[C@@H]1[C@@]2(C(C)C)O[C@H]2[C@@H]2O[C@]23[C@]12O[C@H]2C[C@H]1C2=C(CC[C@@]13C)C(=O)OC2 [PG674, Triptolide 14-Ethyl Carbonate] , readout=EC50) returns 55

---

Tested on: Jurkat human T lymphocyte cell line
Assay: Apoptosis assay (Annexin V) of compounds incubated with human serum
Settings: Homo sapiens, Jurkat, 48 h, read-out: ED50 (nM) in apoptosis assay after incubation with serum, incubation time in human serum 48 hours, 37° C.
Measurement kind: EC50 (nM)
Unit nM implied. Number only.

Here is how some molecules turned out for EC50.
[
  {
    "Molecule": "COC(=O)COC(=O)O[C@@H]1[C@@]2(C(C)C)O[C@H]2[C@@H]2O[C@]23[C@]12O[C@H]2C[C@H]1C2=C(CC[C@@]13C)C(=O)OC2",
    "Target or system": "Jurkat human T lymphocyte cell line",
    "EC50 / nM": 58
  },
  {
    "Molecule": "CCOC(=O)O[C@@H]1[C@@]2(C(C)C)O[C@H]2[C@@H]2O[C@]23[C@]12O[C@H]2C[C@H]1C2=C(CC[C@@]13C)C(=O)OC2 [PG674, Triptolide 14-Ethyl Carbonate]",
    "Target or system": "Jurkat human T lymphocyte cell line",
    "EC50 / nM": 65
  }
]

What the record says about CC(C)[C@]12O[C@H]1[C@@H]1O[C@]13[C@]1(O[C@H]1C[C@H]1C4=C(CC[C@@]13C)C(=O)OC4)[C@@H]2OC(=O)OCCN(C)C : EC50 is 32

Recorded EC50 (molecule CC(C)[C@]12O[C@H]1[C@@H]1O[C@]13[C@]1(O[C@H]1C[C@H]1C4=C(CC[C@@]13C)C(=O)OC4)[C@@H]2OC(=O)OCC(=O)O ): 960

Reported EC50 for CC(C)[C@]12O[C@H]1[C@@H]1O[C@]13[C@]1(O[C@H]1C[C@H]1C4=C(CC[C@@]13C)C(=O)OC4)[C@@H]2OC(=O)O[C@H](C)C(=O)OC(C)(C)C was 139

Sample CC(C)[C@]12O[C@H]1[C@@H]1O[C@]13[C@]1(O[C@H]1C[C@H]1C4=C(CC[C@@]13C)C(=O)OC4)[C@@H]2OC(=O)Oc1ccccc1 [PG676, Triptolide 14-Phenyl Carbonate] ; EC50 observed: 56

Measured EC50 of CC(C)[C@]12O[C@H]1[C@@H]1O[C@]13[C@]1(O[C@H]1C[C@H]1C4=C(CC[C@@]13C)C(=O)OC4)[C@@H]2OC(=O)OC(C)(C)C [PG695, Triptolide 14-tert-Butyl Carbonate] : 59
